target: AKT1 E17K (Homo sapiens, UniProt P31749, E17K); assay: Live cell AKT1 E17K target engagement by NanoBRET competitive probe displacement; settings: HEK293 cells transfected with kinase-NanoLuciferase fusion, 2 h at 37° C.
Sequence (P31749 whole entry E17K, the tested form may be a part): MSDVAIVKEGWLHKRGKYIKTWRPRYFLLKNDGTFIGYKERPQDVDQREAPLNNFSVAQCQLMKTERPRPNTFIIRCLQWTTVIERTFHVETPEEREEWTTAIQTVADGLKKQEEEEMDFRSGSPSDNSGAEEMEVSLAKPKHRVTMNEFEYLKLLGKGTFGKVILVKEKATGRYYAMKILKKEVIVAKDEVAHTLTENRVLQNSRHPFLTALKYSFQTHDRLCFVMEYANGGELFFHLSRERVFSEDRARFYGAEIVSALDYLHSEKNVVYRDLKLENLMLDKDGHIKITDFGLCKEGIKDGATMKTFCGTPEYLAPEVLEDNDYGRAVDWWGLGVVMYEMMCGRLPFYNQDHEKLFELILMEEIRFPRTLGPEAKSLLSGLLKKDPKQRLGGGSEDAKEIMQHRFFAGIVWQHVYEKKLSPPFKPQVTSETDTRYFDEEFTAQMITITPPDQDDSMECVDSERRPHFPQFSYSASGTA
Note to self: IC50 under 400 nM means 1, ties and anything higher get -1.

>  <MOLECULE>
C=CC(=O)N1CC(F)C(N[C@H]2CCc3cc(-n4c(-c5cccnc5N)nc5ccc(-n6cccn6)nc54)ccc32)C(F)C1 (single isomer, unassigned) [Example 220]

>  <TARGET_ENTITY>
AKT1 E17K (Homo sapiens, UniProt P31749, E17K)

>  <LABEL_CLASS>
1

$$$$
>  <MOLECULE>
C=CC(=O)N1CCC(N[C@H]2CCc3cc(-n4c(-c5cccnc5N)nc5ccc(-n6cccn6)nc54)ccc32)C(C)(F)C1 (single isomer, unassigned) [Example 309]

>  <TARGET_ENTITY>
AKT1 E17K (Homo sapiens, UniProt P31749, E17K)

>  <LABEL_CLASS>
1

$$$$
>  <MOLECULE>
C=CC(=O)N1CCC(N[C@H]2CCc3cc(-n4c(-c5cccnc5N)nc5ccc(C6CC6)nc54)ccc32)CC1

>  <TARGET_ENTITY>
AKT1 E17K (Homo sapiens, UniProt P31749, E17K)

>  <LABEL_CLASS>
-1

$$$$
>  <MOLECULE>
C=CC(=O)N1CCC(N[C@@H]2c3ccc(-n4c(-c5cccnc5N)nc5ccc(-n6cccn6)nc54)cc3CC2F)CC1C(F)F (single isomer, unassigned) [Example 302]

>  <TARGET_ENTITY>
AKT1 E17K (Homo sapiens, UniProt P31749, E17K)

>  <LABEL_CLASS>
1

$$$$

**Q:** Hello, I'm reviewing records and need to know if IC50 of C=CC(=O)N1CCC(N[C@@H]2c3ccc(-n4c(-c5ccccc5)nc5ccc(-n6ccc(F)n6)nc54)cc3CC2F)CC1 (stereo partly drawn) is below 400 nM. Could you check?
**A:** 1

**Q:** Hello, I'm reviewing records and need to know if IC50 of C=CC(=O)N1CCC(N[C@H]2CCc3cc(-n4c(-c5cccnc5N)nc5ccc(-n6cccn6)nc54)ccc32)C(O)C1 (single isomer, unassigned) [Example 141] is below 400 nM. Could you check?
**A:** -1

###

Exercise: state measured pIC50 for each of the compounds provided.
biological target: UniProt:P31751; test: Live cell AKT2 target engagement by NanoBRET competitive probe displacement; conditions: HEK293 cells transfected with kinase-NanoLuciferase fusion, 2 h at 37° C.
Sequence (P31751 whole entry, the tested form may be a part): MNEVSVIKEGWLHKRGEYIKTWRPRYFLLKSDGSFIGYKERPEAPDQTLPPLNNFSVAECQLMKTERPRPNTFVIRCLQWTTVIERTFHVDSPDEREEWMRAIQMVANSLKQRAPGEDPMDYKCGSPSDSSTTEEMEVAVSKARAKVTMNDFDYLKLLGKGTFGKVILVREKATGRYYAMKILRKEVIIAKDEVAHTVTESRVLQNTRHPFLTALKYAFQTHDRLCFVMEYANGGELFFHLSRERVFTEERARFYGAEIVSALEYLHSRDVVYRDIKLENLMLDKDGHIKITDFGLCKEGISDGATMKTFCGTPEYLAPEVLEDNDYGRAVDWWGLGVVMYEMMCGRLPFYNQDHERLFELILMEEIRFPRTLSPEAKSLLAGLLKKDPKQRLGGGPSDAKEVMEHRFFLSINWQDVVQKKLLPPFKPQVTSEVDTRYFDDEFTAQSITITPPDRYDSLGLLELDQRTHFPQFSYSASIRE
Answers are plain numbers, as −log10 of the molar value.

>  <COMPOUND>
C=CC(=O)N1CCC(CC2CCc3cc(-n4c(-c5cccnc5N)nc5ccc(-n6cccn6)nc54)ccc32)CC1 (single isomer, unassigned) [Example 344]

>  <pIC50>
6.26

$$$$
>  <COMPOUND>
C=CC(=O)N1CCC(N[C@H]2CCc3cc(-n4c(-c5cccnc5N)nc5ccc(-n6cccn6)nc54)ccc32)C(F)C1 (single isomer, unassigned) [Example 106]

>  <pIC50>
6.92

$$$$
>  <COMPOUND>
C=CC(=O)N(C)c1ccccc1C(=O)N[C@H]1CCc2cc(-n3c(-c4cccnc4N)nc4ccc(-n5cccn5)nc43)ccc21

>  <pIC50>
5.43

$$$$
>  <COMPOUND>
C=CC(=O)N1CCC(N[C@@H]2c3ccc(-n4c(-c5ccccc5)nc5ccc(-c6ccccc6)nc54)cc3CC2F)CC1 (single isomer, unassigned) [Example 325]

>  <pIC50>
7.00

$$$$
>  <COMPOUND>
C=CC(=O)N1CCC(N[C@H]2CCc3cc(-n4c(-c5cccs5)nc5ccc(-n6cccn6)nc54)ccc32)CC1

>  <pIC50>
6.48

$$$$

# per-item lookup of pIC50; items listed below
1. C=C(F)C(=O)Nc1ccccc1C(=O)N[C@H]1CCc2cc(-n3c(-c4cccnc4N)nc4ccc(-n5nccn5)nc43)ccc21
2. C=C(Cl)C(=O)Nc1ccccc1C(=O)N[C@H]1CCc2cc(-n3c(-c4cccnc4N)nc4ccc(-n5cccn5)nc43)ccc21
3. C=CC(=O)N1CCC(N[C@H]2CCc3cc(-n4c(-c5cccnc5N)nc5ccc(C6CC6)nc54)ccc32)C(F)C1 (single isomer, unassigned) [Example 177]
4. C=CC(=O)N1CCC(N[C@H]2CCc3cc(-n4c(-c5cccnc5N)nc5ccc(-n6cccn6)nc54)ccc32)C[C@H]1COC (single isomer, unassigned) [Example 130]
5. C=CC(=O)N1CCC(N[C@H]2CCc3cc(-n4c(-c5cccnc5N)nc5ccc(-n6cccn6)nc54)ccc32)CC12CCC2 (single isomer, unassigned) [Example 93]
6. C=CC(=O)N1CCC(N[C@@H]2c3ccc(-n4c(-c5ccccc5F)nc5ccc(-n6cccn6)nc54)cc3CC2F)C[C@H]1C (single isomer, unassigned) [Example 318]

**A:**
1: 5.65; 2: 5.68; 3: 6.94; 4: 6.17; 5: 7.94; 6: 6.95

###

molecular target: AKT1 WT (Homo sapiens, UniProt P31749); experiment: Live cell AKT1 WT target engagement by NanoBRET competitive probe displacement; settings: HEK293 cells transfected with kinase-NanoLuciferase fusion, 2 h at 37° C.
Sequence (P31749 whole entry, the tested form may be a part): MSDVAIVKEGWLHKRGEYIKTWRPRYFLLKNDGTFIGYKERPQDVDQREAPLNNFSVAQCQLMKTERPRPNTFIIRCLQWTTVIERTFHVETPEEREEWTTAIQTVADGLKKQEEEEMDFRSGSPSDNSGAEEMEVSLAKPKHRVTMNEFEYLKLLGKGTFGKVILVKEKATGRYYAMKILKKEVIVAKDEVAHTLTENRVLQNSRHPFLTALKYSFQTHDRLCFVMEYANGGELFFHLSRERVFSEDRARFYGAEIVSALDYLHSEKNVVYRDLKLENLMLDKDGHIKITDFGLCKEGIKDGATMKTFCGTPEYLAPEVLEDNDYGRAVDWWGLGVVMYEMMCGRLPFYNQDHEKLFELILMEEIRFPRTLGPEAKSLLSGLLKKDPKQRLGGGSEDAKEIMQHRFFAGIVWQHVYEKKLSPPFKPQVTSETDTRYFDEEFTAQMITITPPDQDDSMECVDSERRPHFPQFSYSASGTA
ASSAY_METRIC: pIC50
Give bare numbers, as −log10 of the molar value.

Worked set:
>  <COMPOUND>
C=CC(=O)N1CCC12CCC(N[C@H]1CCc3cc(-n4c(-c5cccnc5N)nc5ccc(-n6cccn6)nc54)ccc31)CC2 (stereo partly drawn)

>  <TARGET_ENTITY>
AKT1 WT (Homo sapiens, UniProt P31749)

>  <pIC50>
7.80

$$$$
>  <COMPOUND>
C=CC(=O)N1CCN(N[C@H]2CCc3cc(-n4c(-c5cccnc5N)nc5ccc(C6CC6)nc54)ccc32)CC1

>  <TARGET_ENTITY>
AKT1 WT (Homo sapiens, UniProt P31749)

>  <pIC50>
5.79

$$$$
>  <COMPOUND>
C=CC(=O)N1CCC(N[C@H]2CCc3cc(-n4c(-c5cccnc5N)nc5ccc(-c6cc7n(n6)CCOC7)nc54)ccc32)CC1

>  <TARGET_ENTITY>
AKT1 WT (Homo sapiens, UniProt P31749)

>  <pIC50>
7.36

$$$$
>  <COMPOUND>
C=CC(=O)N1CCC(N[C@H]2CCc3cc(-n4c(-c5cccnc5N)nc5ccc(-n6cccn6)nc54)ccc32)C(C)(F)C1 (single isomer, unassigned) [Example 307]

>  <TARGET_ENTITY>
AKT1 WT (Homo sapiens, UniProt P31749)

>  <pIC50>
6.53

$$$$
>  <COMPOUND>
C=C(F)C(=O)NCc1ccccc1C(=O)N[C@H]1CCc2cc(-n3c(-c4cccnc4N)nc4ccc(-n5cccn5)nc43)ccc21

>  <TARGET_ENTITY>
AKT1 WT (Homo sapiens, UniProt P31749)

>  <pIC50>
6.03

$$$$
>  <COMPOUND>
C=CC(=O)N1CCC(N[C@H]2CCc3cc(-n4c(-c5cccnc5N)nc5ccc(N6CCOCC6)nc54)ccc32)CC1

>  <TARGET_ENTITY>
AKT1 WT (Homo sapiens, UniProt P31749)

>  <pIC50>
7.86

$$$$
>  <COMPOUND>
C=CC(=O)N1CC(N[C@H]2CCc3cc(-n4c(-c5cccnc5N)nc5ccc(-n6cccn6)nc54)ccc32)C1

>  <TARGET_ENTITY>
AKT1 WT (Homo sapiens, UniProt P31749)

>  <pIC50>
7.30

$$$$
>  <COMPOUND>
C=CC(=O)NC1CC(N[C@H]2CCc3cc(-n4c(-c5cccnc5N)nc5ccc(-n6cccn6)nc54)ccc32)C1 (single isomer, unassigned) [Example 89]

>  <TARGET_ENTITY>
AKT1 WT (Homo sapiens, UniProt P31749)

>  <pIC50>
8.09

$$$$

# per-item lookup of pIC50; items listed below
1. C=CC(=O)N1CCC(N[C@@H]2c3ccc(-n4c(-c5cccnc5N)nc5ccc(-n6ccc(C#N)n6)nc54)cc3CC2F)CC1 (single isomer, unassigned) [Example 312]
2. C=CC(=O)N1CCC(N[C@H]2CCc3cc(-n4c(-c5cccnc5N)nc5ccc(-n6cccn6)nc54)ccc32)C(F)C1 (single isomer, unassigned) [Example 105]
3. Nc1ncccc1-c1nc2ccc(-n3cccn3)nc2n1-c1ccc2c(c1)CC[C@@H]2NC1CCN(C(=O)[C@@H]2CO2)CC1
4. C=CC(=O)N1CCC(CN[C@H]2CCc3cc(-n4c(-c5cccnc5N)nc5ccc(-n6cccn6)nc54)ccc32)(OC)CC1
5. C=CC(=O)N1CCC(N[C@H]2CCc3cc(-n4c(-c5cccnc5N)nc5ccc(-n6ccc(C7(C#N)CC7)n6)nc54)ccc32)CC1
6. C=CC(=O)N1CCC(N[C@H]2CCCc3cc(-n4c(-c5cccnc5N)nc5ccc(-n6cccn6)nc54)ccc32)CC1

**A:**
1. 6.19
2. 8.35
3. 7.51
4. 5.90
5. 6.61
6. 6.52

# per-item lookup of pIC50; items listed below
1. C=CC(=O)N1CCC(N[C@H]2CCc3cc(-n4c(-c5cccnc5N)nc5ccc(-n6cccn6)nc54)ccc32)C(F)(F)C1 (single isomer, unassigned) [Example 56]
2. C=CC(=O)N1CCC(N[C@H]2CCc3cc(-n4c(-c5cccnc5N)nc5ccc(-n6cccn6)nc54)ccc32)CC1CC#N (single isomer, unassigned) [Example 327]
3. C=CC(=O)N1C[C@H]2COC[C@@H](C1)C2N[C@H]1CCc2cc(-n3c(-c4cccnc4N)nc4ccc(-n5cccn5)nc43)ccc21 (single isomer, unassigned) [Example 72]
4. C=CC(=O)N1CCCc2cccc(C(=O)N[C@H]3CCc4cc(-n5c(-c6cccnc6N)nc6ccc(-n7cccn7)nc65)ccc43)c21
5. C=CC(=O)N1CCC(N(CCOC)[C@H]2CCc3cc(-n4c(-c5cccnc5N)nc5ccc(-n6cccn6)nc54)ccc32)CC1
6. C=CC(=O)N1CCC(NC2c3ccc(-n4c(-c5cccnc5N)nc5ccc(-n6cccn6)nc54)cc3CC2O)CC1 (single isomer, unassigned) [Example 150]
7. C=CC(=O)N1CCC(N[C@H]2CCc3cc(-n4c(-c5cccnc5N)nc5ccc(-n6cccn6)nc54)ccc32)C[C@@H]1C(F)F (single isomer, unassigned) [Example 212]

**A:**
[8.17, 6.69, 7.80, 7.32, 6.75, 7.51, 7.44]

# per-item lookup of pIC50; items listed below
1. C=CC(=O)N1CCC(N[C@H]2CC(O)c3cc(-n4c(-c5cccnc5N)nc5ccc(-n6cccn6)nc54)ccc32)CC1 (single isomer, unassigned) [Example 218]
2. C=CC(=O)N(C)CCCN[C@H]1CCc2cc(-n3c(-c4cccnc4N)nc4ccc(-n5cccn5)nc43)ccc21

**A:**
[6.44, 7.66]
